- SYSTEM: UniProt Q9WTR4
- Sequence (Q9WTR4 whole entry): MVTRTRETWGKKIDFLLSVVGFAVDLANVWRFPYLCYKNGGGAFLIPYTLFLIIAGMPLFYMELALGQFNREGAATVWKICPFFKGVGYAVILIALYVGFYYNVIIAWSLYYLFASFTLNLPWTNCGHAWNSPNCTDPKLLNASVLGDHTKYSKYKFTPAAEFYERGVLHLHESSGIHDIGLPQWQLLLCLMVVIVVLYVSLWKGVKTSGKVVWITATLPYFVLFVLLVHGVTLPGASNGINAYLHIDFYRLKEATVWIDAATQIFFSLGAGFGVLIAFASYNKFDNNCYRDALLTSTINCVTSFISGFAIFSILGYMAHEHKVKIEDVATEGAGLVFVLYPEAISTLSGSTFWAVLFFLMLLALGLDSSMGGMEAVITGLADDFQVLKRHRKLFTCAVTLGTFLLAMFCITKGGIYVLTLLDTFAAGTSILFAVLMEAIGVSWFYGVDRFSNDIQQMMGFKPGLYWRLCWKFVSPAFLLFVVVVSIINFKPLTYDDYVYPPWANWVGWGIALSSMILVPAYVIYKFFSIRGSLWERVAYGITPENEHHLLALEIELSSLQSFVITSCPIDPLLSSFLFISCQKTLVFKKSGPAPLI
- ASSAY_EXPLANATION: Inhibition of [3H]norepinephrine uptake at the rat norepinephrine transporter.
pKi: −log10 of the molar value.
QUANTITY: pKi

• Fc1ccc(CN2CCC(CCOC(c3ccc(F)cc3)c3ccc(F)cc3)CC2)cc1 = 6.19
• Ic1ccc(CN2CCC(CCOC(c3ccccc3)c3ccccc3)CC2)cc1 = 6.32
• Fc1ccc(C(OCCC2CCN(Cc3ccc(I)cc3)CC2)c2ccc(F)cc2)cc1 = 6.26
• O=[N+]([O-])c1ccc(CN2CCC(CCOC(c3ccc(F)cc3)c3ccc(F)cc3)CC2)cc1 = 6.64
• Fc1ccc(C(OCCC2CCN(Cc3ccc4ccccc4c3)CC2)c2ccc(F)cc2)cc1 = 7.03
• O=[N+]([O-])c1ccc(CN2CCC(CCOC(c3ccccc3)c3ccccc3)CC2)cc1 = 6.68
• Brc1ccc(CN2CCC(CCOC(c3ccccc3)c3ccccc3)CC2)cc1 = 6.27

Where these numbers come from: ChEMBL document CHEMBL1136761
